Cited source for all entries: patent US9850219B1

Test system: PANC-1
Assay: Cytotoxicity, sulforhodamine B (SRB) assay, PANC-1
Format: cell-based, human
Conditions: Homo sapiens, PANC-1, Pancreas, 48 h, NA = no activity
REPORTED PROPERTY: log10(IC50) (log10 of the value in µM)
The common logarithm of IC50 in µM is what is listed.

Below, 5 compounds whose answers are already recorded.
COMPOUND	MEASURED RESULT
COCCOCCOCCOCC(COCC(COCC(CN1CCN(CCCN2c3ccccc3Sc3ccc(Cl)cc32)CC1)OC)OC)OC (centres unmarked) [Compound 26-1a, NDP-[CH2CH(OCH3)CH2O]3—[CH2CH2O]n—CH3]	1.20
COCC(COCC(COCC(COCCOCCOCCN1CCN(CCCN2c3ccccc3Sc3ccc(Cl)cc32)CC1)OC)OC)OC (centres unmarked) [Compound 25-1a, NDP-[CH2CH2O]n—[CH2CH(OCH3)CH2O]3—CH3]	1.21
COCC(COCC(COCC(COCCOCCOCCN1CCN(CCCN2c3ccccc3Sc3ccc(C(F)(F)F)cc32)CC1)OC)OC)OC (centres unmarked) [Compound 25-1b, NDT-[CH2CH2O]n—[CH2CH(OCH3)CH2O]3—CH3]	1.00
COCC(COCC(COCC(CN1CCN(CCCN2c3ccccc3Sc3ccc(C(F)(F)F)cc32)CC1)OC)OC)OC (centres unmarked) [Compound 24b, NDT-[CH2CH(OCH3)CH2O]3—CH3]	1.41
OCC(O)COCC(O)COCC(O)CN1CCN(CCCN2c3ccccc3Sc3ccc(C(F)(F)F)cc32)CC1 (centres unmarked) [Compound 33b, NDT-[CH2CH(OH)CH2O]3—H]	1.37

Complete the entry with log10(IC50) for COCC(COCC(COCC(COCCOCCOCCOCCOCCOCCOCCOCCOCCN1CCN(CCCN2c3ccccc3Sc3ccc(Cl)cc32)CC1)OC)OC)OC (centres unmarked) [Compound 25-2a, NDP-[CH2CH2O]n—[CH2CH(OCH3)CH2O]3—CH3]
1.55

Complete the entry with log10(IC50) for COCCOCCOCCOCCOCCOCCOCCOCCOCCOCC(COCC(COCC(CN1CCN(CCCN2c3ccccc3Sc3ccc(Cl)cc32)CC1)OC)OC)OC (centres unmarked) [Compound 26-2a, NDP-[CH2CH(OCH3)CH2O]3—[CH2CH2O]n—CH3]
1.45

Complete the entry with log10(IC50) for COCC(COCC(COCC(CN1CCN(CCCN2c3ccccc3Sc3ccc(Cl)cc32)CC1)OC)OC)OC (centres unmarked) [Compound 24a, NDP-[CH2CH(OCH3)CH2O]3—CH3]
1.09
